target entity: T1, recombinant human TIGIT (human, UniProt Q495A1 22-141, limits assumed)
T1 construct: recombinant human TIGIT used in Carterra SPR; also called hTIGIT
T1 sequence (looked up): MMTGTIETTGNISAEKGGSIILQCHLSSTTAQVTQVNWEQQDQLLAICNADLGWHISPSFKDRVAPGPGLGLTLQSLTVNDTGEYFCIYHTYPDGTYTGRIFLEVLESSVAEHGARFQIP
assay overview: SPR Carterra, average
measurement kind: pKd
Would you please state pKd, meaning minus log10 of the concentration in mol/L, as a bare number?

TIGIT-SC171 (Fc fusion, VHH-Fc fusion in assay) VHH: EVQLVESGGGLVQPGGSLRLSCAASGFTFDRSWMGWFRQAPGKEREWVASVLRGGYTWYADSVKGRFTISADNSKNTAYLQMNSLKPEDTAVYYCATERRLGVWGQGTLVTVSS	7.29
TIGIT-SC96 (Fc fusion, VHH-Fc fusion in assay) VHH: EVQLVESGGGLVQPGGSLRLSCAASGMTTIGPMGWFRQAPGKEREFVAAINWSGSSTVYADSVKGRFTISADNSKNTAYLQMNSLKPEDTAVYYCVTYSAYDFRNAWGQGTLVTVSS	6.95
TIGIT-SC112 (Fc fusion, VHH-Fc fusion in assay) VHH: EVQLVESGGGLVQPGGSLRLSCAASGRTLRRYVMGWFRQAPGKERELVAAIDWSGGSALYADSVKGRFTISADNSKNTAYLQMNSLKPEDTAVYYCTWGDGYNLGAFDIWGQGTLVTVSS	7.88
TIGIT-SC192 (Fc fusion, VHH-Fc fusion in assay) VHH: EVQLVESGGGLVQPGGSLRLSCAASGFTFSVYWMGWFRQAPGKEREFVAAISRSGTLKEYADSVKGRFTISADNSKNTAYLQMNSLKPEDTAVYYCARGSGWPKIHFDYWGQGTLVTVSS	6.88
TIGIT-SC40 (Fc fusion, VHH-Fc fusion in assay) VHH: EVQLVESGGGLVQPGGSLRLSCAASGFSFDRWAMGWFRQAPGKERELVARISWNGGSTYYADSVKGRFTISADNSKNTAYLQMNSLKPEDTAVYYCARDDGWLQFMHWGQGTLVTVSS	7.94
TIGIT-SC133 (Fc fusion, VHH-Fc fusion in assay) VHH: EVQLVESGGGLVQPGGSLRLSCAASGFTLENNMMGWFRQAPGKEREFVAAISASGTLRAYADSVKGRFTISADNSKNTAYLQMNSLKPEDTAVYYCACGRVSGAFIYFDYWGQGTLVTVSS	7.38
TIGIT-SC144 (Fc fusion, VHH-Fc fusion in assay) VHH: EVQLVESGGGLVQPGGSLRLSCAASGFTLENNMMGWFRQAPGKEREFVAAISPSGTLRAYADSVKGRFTISADNSKNTAYLQMNSLKPEDTAVYYCAGIHDSGVPLGNWGQGTLVTVSS	7.39
TIGIT-SC107 (Fc fusion, VHH-Fc fusion in assay) VHH: EVQLVESGGGLVQPGGSLRLSCAASGFAFSSDWMGWFRQAPGKEREGVAWIARYDGSTLYADSVKGRFTISADNSKNTAYLQMNSLKPEDTAVYYCAKDLDSSGRFFQHWGQGTLVTVSS	9.16
TIGIT-SC5 (Fc fusion, VHH-Fc fusion in assay) VHH: EVQLVESGGGLVQPGGSLRLSCAASGFAFGDSWMGWFRQAPGKEREWVASVLRGGYTWYADSVKGRFTISADNSKNTAYLQMNSLKPEDTAVYYCARESEGWFDPWGQGTLVTVSS	7.29
TIGIT-SC91 (Fc fusion, VHH-Fc fusion in assay) VHH: EVQLVESGGGLVQPGGSLRLSCAASGFTFSNYAMGWFRQAPGKEREFVAAINWNSRSTYYADSVKGRFTISADNSKNTAYLQMNSLKPEDTAVYYCARWRSIWSGYDDYYYMDVWGQGTLVTVSS	8.27

# next binder below
q: Tell me the measured pKd of TIGIT-SC177 (Fc fusion, VHH-Fc fusion in assay) VHH: EVQLVESGGGLVQPGGSLRLSCAASGFTFSPSWMGWFRQAPGKEREWVASVLRGGYTWYADSVKGRFTISADNSKNTAYLQMNSLKPEDTAVYYCATDRGPAMVFNLWGQGTLVTVSS , please.
a: 6.47
